- systemUnderTest: T1, mouse transferrin receptor (mTfR) fused to EGFP, on CHO cells (mouse, UniProt Q62351 1-763)
- T1 construct: whole, on cells; also called mouse TfR; CHO-mTfR-EGFP; not shown: EGFP
- T1 sequence (Q62351 whole entry, the tested form may be a part): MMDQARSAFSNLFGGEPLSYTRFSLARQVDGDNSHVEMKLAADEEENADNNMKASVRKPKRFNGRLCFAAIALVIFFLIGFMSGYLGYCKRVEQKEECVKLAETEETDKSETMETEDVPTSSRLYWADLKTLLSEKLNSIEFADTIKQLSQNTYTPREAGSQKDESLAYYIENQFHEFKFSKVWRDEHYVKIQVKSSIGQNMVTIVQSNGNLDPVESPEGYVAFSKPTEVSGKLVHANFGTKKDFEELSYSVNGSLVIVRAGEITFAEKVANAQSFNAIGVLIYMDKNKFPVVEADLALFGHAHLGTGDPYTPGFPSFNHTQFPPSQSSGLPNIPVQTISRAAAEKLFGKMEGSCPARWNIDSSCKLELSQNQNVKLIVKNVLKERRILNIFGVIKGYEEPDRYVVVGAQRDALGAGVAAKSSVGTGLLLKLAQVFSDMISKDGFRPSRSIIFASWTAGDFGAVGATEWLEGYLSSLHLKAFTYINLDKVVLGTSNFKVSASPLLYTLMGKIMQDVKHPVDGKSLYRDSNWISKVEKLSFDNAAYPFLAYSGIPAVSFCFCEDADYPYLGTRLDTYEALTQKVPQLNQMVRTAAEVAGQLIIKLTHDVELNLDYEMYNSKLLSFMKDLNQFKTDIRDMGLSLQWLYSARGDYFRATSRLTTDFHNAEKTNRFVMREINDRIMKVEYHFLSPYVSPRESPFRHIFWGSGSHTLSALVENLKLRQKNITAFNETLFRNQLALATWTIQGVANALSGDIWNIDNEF
- experimentalDetails: apparent Kd, flow cytometry, CHO cells
experimentalReadout: pKd
Field pKd (float): negative decimal logarithm of the concentration in molar.

Reference set, count: 3
C5^h22 (VHH) VHH: EVQLVESGGGVVQPGGSLRLSCAASGTDFSINFIRWYRQAPGKGREFVAGFTATGNTNYADSVKGRFTISRDNAKNTLYLQMNSLRPEDTAVYYCYMLDKWGQGTQVTVSS
6.22
C5^h15 (VHH) VHH: EVQLVESGGGVVQPGGSLRLSCVASGTDFSINFIRWVRQAPGKGLEWVAGFTATGNTNYADSVKGRFTISRDNTKNTLYLQMDSLRPEDTAVYYCYMLDKWGQGTQVTVSS
6.34
C5^h26 (VHH) VHH: EVQLVESGGGVVQPGGSLRLSCAASGTDFSINFIRWYRQAPGKGLEWVAGFTATGNTNYADSVKGRFTISRDNAKNTLYLQIDSLRPEDTAVYYCYMLDKWGQGTQVTVSS
6.17

Now let's try a different one.
Item B8^V30 (VHH) VHH: EVQLVESGGGVVQPGGSLRLSCAASGEIFSINFMRWYRQAPGKQREWVAGFTRDGSTNYPDSAKGRFTISRDNAKNTVYLQIDSLKPEDTAVYYCYMQDTWGQGTQVTVSS has what recorded pKd? 5.48
